Kd values by entry
target: recombinant αIIbβ3 headpiece
experiment.summary: fluorescence polarisation; competition: unlabeled peptide against 3 nM FITC-dodecapeptide on 300 nM αIIbβ3 headpiece; I50 converted to KD; 20 mM HEPES, pH 7.5, 150 mM NaCl, 2 mM MnCl2, 0.1 mM CaCl2
No end group written: not given here.
Express it in µM; write the number only.

Examples with their reported Kd follow.
binder	Kd [µM]
Ac-AGDV [N-acetylated AGDV]	1
HHLGGAKQAGDV [fibrinogen γC dodecapeptide]	1.27

Query: Kd; subject: AGDV [AGDV tetrapeptide]
9.03

Query: Kd; subject: QAGDV [QAGDV pentapeptide]
7.85

Data origin: paper PMC4813479
